Tested on: Huh7 cells
Assay: Cell proliferation, Huh7 (CellTiter Glo)
Format: cell-based
Details: Homo sapiens, Huh-7; Huh7; 120 hr; read-out: Cell Proliferation GI50 (nM) HUH
Protocol: The growth inhibition (GI50) values were determined by Graph Pad Prism.
quantity: GI50

Sample answers from the record:
C=CC(=O)Nc1ccccc1Nc1ncc2c(n1)N(Cc1cccc(NC(=O)CC)c1)C(=O)N(c1c(Cl)c(OC)cc(OC)c1Cl)C2 [I-1]; 101 to 500 nM
C=CC(=O)Nc1cc(C)ccc1Nc1ncc2c(n1)N(C)C(=O)N(c1cc(OC)cc(OC)c1)C2 [I-41]; > 1000 nM
C=CC(=O)Nc1ccccc1Nc1ncc2c(n1)N(Cc1cn[nH]c1)C(=O)N(c1c(Cl)c(OC)cc(OC)c1Cl)C2 [I-124]; 101 to 500 nM
C=CC(=O)NC1CCCCC1Nc1ncc2c(n1)N(CC(F)F)C(=O)N(c1cc(OC)cc(OC)c1Cl)C2 (racemic) [I-107]; > 1000 nM
C=CC(=O)Nc1cc(-c2nnnn2C)ccc1Nc1ncc2c(n1)N(C)C(=O)N(c1c(Cl)c(OC)cc(OC)c1Cl)C2 [I-153]; 101 to 500 nM

Task item: Sample C=CC(=O)Nc1ccccc1Nc1ncc2c(n1)N(C1CCCN(C(=O)OC(C)(C)C)C1)C(=O)N(c1cc(OC)cc(OC)c1)C2 (stereo not drawn) [I-36] — what was its GI50?
Reply: > 1000 nM

Task item: Can you check C=CC(=O)Nc1ccccc1Nc1ncc2c(n1)N(CC(F)F)C(=O)N(c1cc(OC)cc(OC)c1)C2 [I-99] next?
Reply: > 1000 nM

Task item: Thanks! And C=CC(=O)NC1CCCCC1Nc1ncc2c(n1)N(Cc1ccccc1)C(=O)N(c1c(Cl)c(OC)cc(OC)c1Cl)C2 (racemic) [I-63] ?
Reply: 101 to 500 nM

Task item: Now give it for C=CC(=O)NC1COCC1Nc1ncc2c(n1)N(C)C(=O)N(c1c(F)c(OC)cc(OC)c1F)C2 (stereo not drawn) [I-198] too.
Reply: 101 to 500 nM

Task item: Input C=CC(=O)Nc1cc(N(C)CCOC)ccc1Nc1ncc2c(n1)N(Cc1ccccc1)C(=O)N(c1cc(OC)cc(OC)c1)C2 [I-13]
Reply: > 1000 nM

Task item: Ok, now C=CC(=O)NC1CCCCC1Nc1ncc2c(n1)N(C1CC1)C(=O)N(c1c(Cl)c(OC)cc(OC)c1Cl)C2 (racemic) [I-68]
Reply: > 1000 nM

Task item: What do you get for C=CC(=O)Nc1ccccc1Nc1ncc2c(n1)N(CC#N)C(=O)N(c1cc(OC)cc(OC)c1)C2 [I-48] ?
Reply: > 1000 nM

Task item: Next entry: C=CC(=O)Nc1ccccc1Nc1ncc2c(n1)N(Cc1cccc(C(N)=O)c1)C(=O)N(c1cc(OC)cc(OC)c1)C2 [I-97]
Reply: > 1000 nM

Task item: Repeat with C=CC(=O)NC1CCCCC1Nc1ncc2c(n1)N(CC(F)F)C(=O)N(c1c(F)c(OC)cc(OC)c1F)C2 (stereo not drawn) [I-115]
Reply: > 1000 nM

Task item: Note, next up: C=CC(=O)Nc1cc(N(C)CCOC)ccc1Nc1ncc2c(n1)N(C)C(=O)N(c1cc(OC)cc(OC)c1)C2 [I-21]
Reply: 501 to 999 nM
